measurement_name: melting point (°C)
Give the value in °C but do not write °C after it.

COc1cccc(OC)c1-c1ccc(C[C@H](NC(=O)c2c(Cl)cc(-c3cnccn3)cc2Cl)C(=O)O)cc1; 145.7

Q: Bench note: what melting point did CCCCC(=O)c1cc(C[C@H](NC(=O)c2c(Cl)cccc2Cl)C(=O)O)ccc1-c1ccccc1OC show?
A: 117.6

* * *

# reported melting point; entries follow

COc1cc(C(F)(F)F)cc(OC)c1-c1ccc(C[C@H](NC(=O)c2c(Cl)cccc2Cl)C(=O)O)cc1; 231 to 232 °C

Q: Bench note: what melting point did COCCOc1ccc2c(c1-c1ccc(C[C@H](NC(=O)c3c(Cl)cccc3Cl)C(=O)O)cc1)OCO2 show?
A: 167 to 168 °C

Q: Bench note: what melting point did CNC(=O)Nc1ccc(OC)c(-c2ccc(C[C@H](NC(=O)c3c(Cl)cccc3Cl)C(=O)O)cc2)c1OC show?
A: 236 to 237 °C
